- measuredOn: Human recombinant renin (Homo sapiens, UniProt P00797)
- Sequence (P00797 67-406): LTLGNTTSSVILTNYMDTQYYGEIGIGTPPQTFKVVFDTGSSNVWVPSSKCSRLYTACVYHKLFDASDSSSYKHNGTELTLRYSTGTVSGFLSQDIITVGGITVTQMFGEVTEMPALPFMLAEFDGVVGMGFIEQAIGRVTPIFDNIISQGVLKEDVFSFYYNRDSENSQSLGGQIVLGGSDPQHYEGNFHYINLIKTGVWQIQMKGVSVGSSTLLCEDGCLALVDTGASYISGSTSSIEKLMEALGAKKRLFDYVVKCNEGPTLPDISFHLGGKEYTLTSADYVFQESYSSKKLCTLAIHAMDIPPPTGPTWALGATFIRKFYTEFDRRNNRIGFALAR
- method: Inhibition of human recombinant renin (QFRET, buffer)
- assaySetup: buffer: 50 mM MOPS pH 7.4, 100 mM NaCl, 0.002% Tween 20; 37° C., 3 hours
- Description: Inhibition of Human Recombinant Renin Human recombinant renin (Proteos) in 50 mM MOPS pH 7.4, 100 mM NaCl, 0.002% Tween 20 at a final concentration of […] is incubated with inhibitors from a 50 fold concentrated DMSO solution and 6 μM of an internally-quenched fluorescent peptide: DNP-[…]D,L-Amp (SEQ ID NO: 1); Paschalidou K. et al., Biochem J., 2004, 382, 1031). […] Background fluorescence at t=0 is subtracted from the measurement at t=3 hours. […]
The label True is reserved for IC50 strictly under 10 nM; False covers values equal to or above it.

In [3]: df
Out[3]:
                                    compound  qualitativelabel
 0  COC[C@H](C)COCc1ccc([C@@]2(O)CCNC[C@@H]2c2ccc(-c3ccccc3CCNC(C)=O)cc2C)cc1 (racemic) [Structure 54]              True
 1  Cc1cc(-c2cccc3ccc(O)cc23)ccc1[C@H]1CNCC[C@@H]1c1cc(F)cc(F)c1 (racemic) [Structure 29]             False
 2  Cn1c(-c2ccccc2)cnc1[C@H]1CNCC[C@]1(O)c1ccc(F)c(F)c1 [Structure 92]             False
 3  O[C@]1(c2ccc(F)c(F)c2)CCNC[C@@H]1c1onc(-c2cccc(Cl)c2Cl)c1Br [Structure 71]              True
 4  CC(=O)NCCc1ccccc1-c1ccc([C@H]2CNCC[C@@H]2c2cccnc2)c(C)c1 [Structure 4]              True
 5  COc1cc(CCNC(C)=O)c(-c2ccc([C@H]3CNCC[C@@H]3c3ccn(C)c(=O)c3)c(Cl)c2)cc1OC (racemic) [Structure 66]             False
 6  CC(=O)NCCc1ccccc1-c1ccc([C@H]2CNCC[C@]2(O)c2ccc(F)c(F)c2)c(C)c1 (racemic) [Structure 51]              True
 7  CC(=O)NCCc1ccccc1-c1ccc([C@H]2CNCC[C@@H]2c2cccnc2N)c(Cl)c1 (racemic) [Structure 45]             False
 8  Cc1cc(-c2ccccc2CCCO)ccc1[C@H]1CNCC[C@@H]1c1cccc2nc[nH]c12 (racemic) [Structure 9]             False
 9  CC(=O)NCCc1cc(C(F)(F)F)ccc1-c1ccc([C@H]2CNCC[C@@H]2c2ccc(F)c(F)c2)c(Cl)c1 (racemic) [Structure 47]              True
10  O=C(NCCc1ccccc1-c1ccc([C@H]2CNCC[C@@H]2c2ccc(F)c(F)c2)c(Cl)c1)C(F)(F)F (racemic) [Structure 41]              True
11  CC(=O)NCc1ccccc1-c1ccc([C@H]2CNCC[C@@H]2c2ccc(F)c(F)c2)cc1 (racemic) [Structure 49]             False

* * *

- measuredOn: Human recombinant renin (Homo sapiens, UniProt P00797)
- method: Inhibition of human recombinant renin (QFRET, buffer)
- assaySetup: buffer: 50 mM MOPS pH 7.4, 100 mM NaCl, 0.002% Tween 20; 37° C., 3 hours
The label 1.0 is reserved for IC50 strictly under 2 nM; 0.0 covers values equal to or above it.

>>> df
                                    molecule  qualitativelabel
 0  CC(=O)NCCc1ccccc1-c1ccc([C@H]2CNCC[C@@H]2c2ccn(C)c(=O)c2)c(Cl)c1 (racemic) [Structure 58]               0.0
 1  Cc1cc(-c2ccccc2CCCO)ccc1[C@H]1CNCC[C@@H]1c1cc(F)cc(F)c1 (racemic) [Structure 7]               0.0
 2  CC(=O)NCCc1ccccc1-c1onc([C@H]2CNCC[C@]2(OCc2c[nH]nn2)c2ccc(F)c(F)c2)c1Br [Structure 90]               1.0
 3  COC[C@H](C)COCc1ccc([C@@]2(O)CCNC[C@@H]2c2noc(-c3ccccc3CCNC(C)=O)c2Br)cc1 [Structure 89]               1.0
 4  Cc1cc(-c2ccccc2CCNC(=O)c2ccccc2)ccc1[C@H]1CNCC[C@@H]1c1cc(F)cc(F)c1 (racemic) [Structure 22]               0.0
 5  Cc1cc(-c2ccccc2CCN)ccc1[C@H]1CNCC[C@@H]1c1cc(F)cc(F)c1 (racemic) [Structure 27]               0.0
 6  CC(=O)NCCc1ccccc1-c1ccc([C@@H]2CNCC[C@H]2c2cccnc2)c(Cl)c1 [Structure 14]               0.0
 7  COC[C@H](C)COCc1ccc([C@@]2(O)CCNC[C@@H]2c2ccc(-c3ccccc3CCNC(C)=O)cc2Cl)cc1 [Structure 126]               1.0
 8  Cc1cc(-c2ccccc2OCc2ccccc2)ccc1[C@H]1CNCC[C@@H]1c1cc(F)cc(F)c1 (racemic) [Structure 37]               0.0
 9  COCCC[C@H](CNC(C)=O)c1ccccc1-c1onc([C@H]2CNCC[C@]2(O)c2ccc(F)c(F)c2)c1Br [Structure 98]               1.0
10  COCCCc1ccccc1-c1cc(C)c([C@H]2CNCC[C@@H]2c2ccc(Cl)c(F)c2)cn1 (racemic) [Structure 50]               1.0
11  CC(=O)NCCc1ccccc1-c1ccc([C@H]2CNCC[C@@H]2c2cccnc2)c(C)c1 (racemic) [Structure 3]               0.0
12  COC[C@H](C)COc1ccc([C@@]2(O)CCNC[C@@H]2c2ccc(-c3ccccc3CCNC(C)=O)cc2C)cc1 [Structure 131]               1.0
13  CCOCC(F)(F)COCc1ccc([C@@]2(O)CCNC[C@@H]2c2noc(-c3ccccc3CCNC(C)=O)c2Br)cc1 [Structure 114]               1.0

* * *

Entries and their measured pIC50 follow.
- measuredOn: Human recombinant renin (Homo sapiens)
- method: Inhibition of human recombinant renin (QFRET, buffer)
- assaySetup: buffer: 50 mM MOPS pH 7.4, 100 mM NaCl, 0.002% Tween 20; 37° C., 3 hours
pIC50: −log10 of the molar value.
quantity: pIC50

In [3]: df
Out[3]:
                                    molecule  quantity  recordedmeasurement
 0  Cc1cc(-c2ccccc2CCNC(=O)CO)ccc1[C@H]1CNCC[C@@H]1c1cc(F)cc(F)c1 (racemic)     pIC50                 8.82
 1  CC(=O)NCCc1ccccc1-c1ccc([C@@H]2CNCC[C@H]2c2cc(F)cc(F)c2)c(C)c1     pIC50                 6.28
 2  CC(=O)NCCc1ccccc1-c1ccc([C@@H]2CNCC[C@H]2c2ccn(C)c(=O)c2)c(Cl)c1     pIC50                 6.15
 3  COCCCc1ccccc1-c1ccc([C@H]2CNCC[C@]2(OCC(O)CO)c2ccc(F)c(F)c2)c(C)c1 (mixture of isomers)     pIC50                 7.80
 4  Cc1cc(-c2ccccc2CCNC(=O)C(C)C)ccc1[C@H]1CNCC[C@@H]1c1cc(F)cc(F)c1 (racemic)     pIC50                 7.85
 5  O[C@]1(c2ccc(F)c(F)c2)CCNC[C@@H]1c1cc(-c2c(Cl)cccc2Cl)no1     pIC50                 5.92
 6  COC[C@H](C)COCc1ccc([C@@]2(O)CCNC[C@@H]2c2ccc(-c3ccccc3CCNC(N)=O)cc2C)cc1     pIC50                 9.20
 7  COCCCc1ccccc1-c1ccc([C@H]2CNCC[C@@H]2c2ccn(C)c(=O)c2)c(Cl)c1 (racemic)     pIC50                 8.19
 8  CC(=O)NCCc1ccccc1-c1onc([C@H]2CNCC[C@]2(O)c2ccc(F)c(F)c2)c1Br     pIC50                 9.64
 9  CC(=O)NCCc1ccccc1-c1onc([C@H]2CNCC[C@@H]2c2ccc(OCCOc3c(Cl)cc(C)cc3Cl)cc2)c1C(C)=O     pIC50                10.05
10  COC[C@H](C)COCc1ccc([C@@]2(O)CCNC[C@@H]2c2ccc(-c3ccccc3CCNC(C)=O)cc2C)nc1     pIC50                10.12
11  COCCCc1ccccc1-c1ccc([C@H]2CNCC[C@@H]2c2cccnc2)c(C)c1 (racemic)     pIC50                 7.74
12  CC(=O)NCCc1ccccc1-c1onc([C@H]2CNCC[C@]2(O)c2ccc(C)c(F)c2)c1Br     pIC50                 8.31
13  CCOCC(F)(F)COCc1ccc([C@@]2(O)CCNC[C@@H]2c2ccc(-c3ccccc3CCNC(C)=O)cc2C)cc1     pIC50                10.05

This collection of values is drawn from patent US20120035214A1.
